Values were extracted from patent US6444685B1.

Measured melting point by item
Where a name gives a salt, the structure may show the parent alone.

COMPOUND: CC(C)OC(=O)C1CCCN1S(=O)(=O)c1ccc(N2CCC(NCC(O)c3ccc(O)c(NS(C)(=O)=O)c3)CC2)cc1 (stereo not drawn)
melting point: 52 to 58 °C
//
COMPOUND: Cc1ccc(S(=O)(=O)c2ccc(N3CCC(NCC(O)c4ccc(O)c(NS(C)(=O)=O)c4)CC3)cc2)cc1 (stereo not drawn)
melting point: 115 to 118 °C
//
COMPOUND: CS(=O)(=O)Nc1cc([C@@H](O)CNC2CCN(c3ccc(S(=O)(=O)N4CC(=O)NC4=O)cc3)CC2)ccc1O
melting point: 200 to 202 °C
//
COMPOUND: CS(=O)(=O)Nc1cc([C@@H](O)CNC2CCN(c3ccc(S(=O)(=O)N4CCN(CC(=O)O)CC4)cc3)CC2)ccc1O (as salt: sodium)
melting point: 131 °C (dec.)
//
COMPOUND: CC(C)(C)OC(=O)CN(CC(=O)OC(C)(C)C)S(=O)(=O)c1ccc(N2CCC(NC[C@H](O)c3ccc(O)c(NS(C)(=O)=O)c3)CC2)cc1
melting point: 164 to 166 °C
//
COMPOUND: CCCCNS(=O)(=O)c1ccc(N2CCC(NC[C@H](O)c3ccc(O)c(NS(C)(=O)=O)c3)CC2)cc1
melting point: 71 to 75 °C

---

Catalogue of pEC50 values
- TEST TARGET: human β3 adrenergic receptor (Homo sapiens, UniProt P13945)
- Construct: Full length β3 AR clones (402 amino acids) containing the last 6 amino acids of hβ3— AR are prepared
- Sequence (P13945 whole entry): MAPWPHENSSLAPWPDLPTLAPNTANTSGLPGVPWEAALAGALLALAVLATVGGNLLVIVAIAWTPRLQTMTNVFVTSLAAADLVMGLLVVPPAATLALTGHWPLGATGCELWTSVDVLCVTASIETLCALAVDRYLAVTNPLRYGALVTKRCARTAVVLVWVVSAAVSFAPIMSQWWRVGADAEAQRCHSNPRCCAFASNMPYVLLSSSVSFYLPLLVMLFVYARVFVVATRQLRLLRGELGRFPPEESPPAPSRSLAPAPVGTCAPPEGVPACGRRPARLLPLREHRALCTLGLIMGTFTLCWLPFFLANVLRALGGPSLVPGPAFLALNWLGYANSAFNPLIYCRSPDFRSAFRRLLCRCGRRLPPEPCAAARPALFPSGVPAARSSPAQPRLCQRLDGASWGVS
- METHOD DESCRIPTION: cAMP accumulation (SPA) in CHO cells transfected with human β3 adrenergic receptor
- PARTICULARS: CHO cells expressing human β3-AR; cAMP; 30 min incubation; 10^−9 M to 10^−5 M; read-out: beta-3 EC50
pEC50: −log10 of the molar value.
RESULT TYPE: pEC50

MOLECULE: COc1ccc(NS(=O)(=O)c2ccc(N3CCC(NCC(O)c4ccc(O)c(NS(C)(=O)=O)c4)CC3)cc2)cc1OC (stereo not drawn) [Example 8]
RECORDED VALUE: 7.80
//
MOLECULE: CCCCN(CC(=O)OCc1ccccc1)S(=O)(=O)c1ccc(N2CCC(NC[C@H](O)c3ccc(O)c(NS(C)(=O)=O)c3)CC2)cc1 [Example 19]
RECORDED VALUE: 8.15
//
MOLECULE: CCCCN(CC(=O)O)S(=O)(=O)c1ccc(N2CCC(NC[C@H](O)c3ccc(O)c(NS(C)(=O)=O)c3)CC2)cc1 [Example 20]
RECORDED VALUE: 8.00
//
MOLECULE: CCOC(=O)NC(=O)CNS(=O)(=O)c1ccc(N2CCC(NC[C@H](O)c3ccc(O)c(NS(C)(=O)=O)c3)CC2)cc1 [Example 58]
RECORDED VALUE: 7.96
//
MOLECULE: COC(=O)CNS(=O)(=O)c1ccc(N2CCC(NC[C@H](O)c3ccc(O)c(NS(C)(=O)=O)c3)CC2)cc1 [Example 57]
RECORDED VALUE: 8.22
//
MOLECULE: CC(C)(C)OC(=O)CNS(=O)(=O)c1ccc(N2CCC(NC[C@H](O)c3ccc(O)c(NS(C)(=O)=O)c3)CC2)cc1 [Example 52]
RECORDED VALUE: 8.22

---

- TEST TARGET: human β3 adrenergic receptor (Homo sapiens)
- Construct: Full length β3 AR clones (402 amino acids) containing the last 6 amino acids of hβ3— AR are prepared
- METHOD DESCRIPTION: cAMP accumulation (SPA) in CHO cells transfected with human β3 adrenergic receptor
- PARTICULARS: CHO cells expressing human β3-AR; cAMP; 30 min incubation; 10^−9 M to 10^−5 M; read-out: beta-3 EC50
RESULT TYPE: EC50 (nM)

COMPOUND: Cc1ccc(S(=O)(=O)c2ccc(N3CCC(NC[C@H](O)COc4cccc5[nH]c(=O)[nH]c45)CC3)cc2)cc1 [Example 46]
OUTPUT UNIT: nM
RECORDED VALUE: 9
--
COMPOUND: CCCCNS(=O)(=O)c1ccc(N2CCC(NC[C@H](O)COc3cccc4[nH]c(=O)[nH]c34)CC2)cc1 [Example 12]
OUTPUT UNIT: nM
RECORDED VALUE: 10
--
COMPOUND: CCOC(=O)[C@H]1CCCN1S(=O)(=O)c1ccc(N2CCC(NC[C@H](O)c3ccc(O)c(NS(C)(=O)=O)c3)CC2)cc1 [Example 30]
OUTPUT UNIT: nM
RECORDED VALUE: 4
--
COMPOUND: CS(=O)(=O)Nc1cc([C@@H](O)CNC2CCN(c3ccc(S(=O)(=O)N4CC(=O)NC4=O)cc3)CC2)ccc1O [Example 50]
OUTPUT UNIT: nM
RECORDED VALUE: 10

---

- TEST TARGET: human β1-adrenergic receptor (Homo sapiens)
- Sequence (P08588 whole entry): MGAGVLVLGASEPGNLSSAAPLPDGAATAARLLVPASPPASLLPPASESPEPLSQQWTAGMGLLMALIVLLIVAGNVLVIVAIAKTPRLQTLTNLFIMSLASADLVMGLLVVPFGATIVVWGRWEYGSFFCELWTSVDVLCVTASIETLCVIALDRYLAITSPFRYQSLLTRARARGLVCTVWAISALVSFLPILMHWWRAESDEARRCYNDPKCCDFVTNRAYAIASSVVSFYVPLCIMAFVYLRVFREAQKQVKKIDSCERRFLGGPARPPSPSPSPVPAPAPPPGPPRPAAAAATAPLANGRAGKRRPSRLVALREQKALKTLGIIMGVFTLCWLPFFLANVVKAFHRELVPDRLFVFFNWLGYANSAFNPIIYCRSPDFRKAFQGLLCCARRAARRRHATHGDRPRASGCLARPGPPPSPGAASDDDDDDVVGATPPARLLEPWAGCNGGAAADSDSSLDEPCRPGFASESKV
- METHOD DESCRIPTION: cAMP accumulation (SPA) in CHO cells transfected with human β1 adrenergic receptor
- PARTICULARS: CHO cells transfected with human β1-AR; cAMP; 15 min incubation; 10^−8 to 10^−4 M; read-out: beta-1 EC50
pEC50: −log10 of the molar value.
Decision: pEC50 >= 7 yields 1, all other cases yield 0.

COMPOUND: Cc1ccc(S(=O)(=O)c2ccc(N3CCC(NCC(O)c4ccc(O)c(NS(C)(=O)=O)c4)CC3)cc2)cc1 (stereo not drawn) [Example 45]
TEST TARGET: human β1-adrenergic receptor (Homo sapiens)
CATEGORY: 1

COMPOUND: CS(=O)(=O)Nc1cc([C@@H](O)CNC2CCN(c3ccc(S(=O)(=O)N4CCC[C@H]4C(=O)OCc4ccccc4)cc3)CC2)ccc1O [Example 22]
TEST TARGET: human β1-adrenergic receptor (Homo sapiens)
CATEGORY: 0

COMPOUND: CC(C)CN(CC(=O)O)S(=O)(=O)c1ccc(N2CCC(NC[C@H](O)c3ccc(O)c(NS(C)(=O)=O)c3)CC2)cc1 [Example 34]
TEST TARGET: human β1-adrenergic receptor (Homo sapiens)
CATEGORY: 0

COMPOUND: CCOC(=O)[C@@H]1CCCN1S(=O)(=O)c1ccc(N2CCC(NC[C@H](O)c3ccc(O)c(NS(C)(=O)=O)c3)CC2)cc1 [Example 36]
TEST TARGET: human β1-adrenergic receptor (Homo sapiens)
CATEGORY: 0

COMPOUND: COC(=O)N(CC(=O)O)S(=O)(=O)c1ccc(N2CCC(NC[C@H](O)c3ccc(O)c(NS(C)(=O)=O)c3)CC2)cc1 [Example 60]
TEST TARGET: human β1-adrenergic receptor (Homo sapiens)
CATEGORY: 0

COMPOUND: COc1ccc(NS(=O)(=O)c2ccc(N3CCC(NC[C@H](O)COc4cccc5[nH]c(=O)[nH]c45)CC3)cc2)cc1OC [Example 7]
TEST TARGET: human β1-adrenergic receptor (Homo sapiens)
CATEGORY: 0

---

- TEST TARGET: human β3 adrenergic receptor (Homo sapiens, UniProt P13945)
- Construct: Full length β3 AR clones (402 amino acids) containing the last 6 amino acids of hβ3— AR are prepared; expressed in transfected cells; host or cells: CHO cells
- METHOD DESCRIPTION: cAMP accumulation (SPA) in CHO cells transfected with human β3 adrenergic receptor
- Assay type: cell-based
- PARTICULARS: IA = % activity compound / % activity isoproterenol at 10^−5 M; CHO human β3 cells
Where a name gives a salt, the structure may show the parent alone.
RESULT TYPE: beta-3 (IA) maximal response relative to isoproterenol

COMPOUND: CCCCNC(=O)NS(=O)(=O)c1ccc(N2CCC(NC[C@H](O)c3ccc(O)c(NS(C)(=O)=O)c3)CC2)cc1
RECORDED VALUE: (1)

COMPOUND: CC#CCC(CC#CC)(C(=O)OC(C)(C)C)S(=O)(=O)c1ccc(N2CCC(NC[C@H](O)c3ccc(O)c(NS(C)(=O)=O)c3)CC2)cc1
RECORDED VALUE: (0.93)

COMPOUND: CCOC(=O)[C@H]1CCCN1S(=O)(=O)c1ccc(N2CCC(NC[C@H](O)c3ccc(O)c(NS(C)(=O)=O)c3)CC2)cc1
RECORDED VALUE: (1.2)

COMPOUND: CS(=O)(=O)Nc1cc([C@@H](O)CNC2CCN(c3ccc(S(=O)(=O)N4CCC[C@@H]4C(=O)O)cc3)CC2)ccc1O
RECORDED VALUE: (1.1)

COMPOUND: CCCCN(Cc1ccccc1)S(=O)(=O)c1ccc(N2CCC(NC[C@H](O)COc3cccc4[nH]c(=O)[nH]c34)CC2)cc1
RECORDED VALUE: (1.1)

COMPOUND: CS(=O)(=O)Nc1cc([C@@H](O)CNC2CCN(c3ccc(S(=O)(=O)N4CCCCC4)cc3)CC2)ccc1O
RECORDED VALUE: (1)

COMPOUND: CS(=O)(=O)Nc1cc([C@@H](O)CNC2CCN(c3ccc(S(=O)(=O)N4CCN(CC(=O)O)CC4)cc3)CC2)ccc1O [Example 65, Sodium Salt]
RECORDED VALUE: (0.93)

COMPOUND: CC(C)CNS(=O)(=O)c1ccc(N2CCC(NC[C@H](O)c3ccc(O)c(NS(C)(=O)=O)c3)CC2)cc1
RECORDED VALUE: (1)
